Experiment: yeast display, Sf9 membrane polyspecificity reagent, FACS + sequencing; frameworks hold sequencing errors

- sequence-chain: "QVQHVESGGGLVQAGGSLRLSFAASGSTFAWYPMGWYRQAPGKERELVAAITRDGSTYYADSVKGRFTISRDNAKNTVYLQMNSLKPEDTAVYYCAADLSYWRGGHSRYYWGQGTQVTVSS"
  polyreactivity (PSR sort gate): "low polyreactivity"
- sequence-chain: "QVQHVESGGGLDQAGGSLRLSCAASGRTFSYYTMGWYRQAPGKERELVARISNRGTNTYYADSVKGRFTISRDNSKNTVYLQMNSLKPEDTAVYYCAKYYYTSIVGYDSWGQGTQVTVSS"
  polyreactivity (PSR sort gate): "low polyreactivity"
- sequence-chain: "QVQLVESGGGLVQAGGSLRLSCAASGFTFYGNSMGWYRQATGKERELVAAITSGGSTYYADSVKGRFTISRDNAKNNVYLQMNSLKPEDTAVYYCAAVNGWRRVKRFDYWGQGTQVTVSS"
  polyreactivity (PSR sort gate): "high polyreactivity"
- sequence-chain: "QVQLVESGGGLVQAGGSLRLSCAASGRTFRSNAMGGYRQAPGKERELVAAITYSGDRTYYADSVKGRFTISRDNAKNTVYLQMNSLKPEDTAVYDCNKYSRQYTYGYWGQGTQVTVSS"
  polyreactivity (PSR sort gate): "high polyreactivity"
- sequence-chain: "QVQLVESGGGLVQAGGSLRLSCAASGTFWGYAMGWYRQAPGKERELVAAISASGASTSYADSVKGRFTISRDNAKNTVYLQMNSLKPEDTAVYYCDARRNTAYGYWGQGTQVTVSS"
  polyreactivity (PSR sort gate): "high polyreactivity"
- sequence-chain: "QVQLVESGGGLVQAGGSLRLSCAASGSTLHEYAMGWYRQAPGKARELVAAISRGGGNTNYADSVKGRFTISRDNAKNTVYLQMNSLIPEDTAVYYCNARHGKIIFYLERYDYWGQGTQVTVSS"
  polyreactivity (PSR sort gate): "low polyreactivity"
- sequence-chain: "QVQLVESGGGLVQAGGSLRLSCAASGFTLGYYTMGWYRQAPGKERELVAAIRSNGGSTYYADSVKGRFTISRDNAKNTVYLQMNSLKPEDTAVYYCAARRWRYVGTRYDYWGQGTQVTVSS"
  polyreactivity (PSR sort gate): "high polyreactivity"
- sequence-chain: "QVQLVESGGGLVQAGGSLRLSCAASGITFYDYAMGWYRQAPGKERELVAVITRRGGSTYYADSVKGRFTISRDNAKNTVYIQMNSLKPEDTAVYYCAADWRVWSFVRGVDYWGQGTQVTVSS"
  polyreactivity (PSR sort gate): "high polyreactivity"
- sequence-chain: "QVQLVDSGGGLVQAGGSLRLSCAASGSIIYDYPMGWYRQAPGKEREFVASIDWRGDSTYYADSVKGRFTNSRDNAKNTVYLQMNRLKPEDTAVYYCAADRSYQYYFYEDYGYDYWGQGTQVTVSS"
  polyreactivity (PSR sort gate): "low polyreactivity"
- sequence-chain: "QVQLVESGGGLVQAGGSLRLSCAASGRTFYRYAMGWYRQAPGKERELVAAITWSGGSTYYADSVKGRFTTSRDNAKNTVYFQMNSLKPEDTAVYYCARRLYPYRPTAYDYWGQGTQVTVSS"
  polyreactivity (PSR sort gate): "low polyreactivity"
- sequence-chain: "QVHLVESGRGLVQAGGSLSVTCSASGFTFYWYTMGWYRRAPGKERELVAAISRRGGSTSYADSVKGRFTISRDNAKNTVYLKMKILKPDDTAVYYCAKTPGWTDYDYWGQGTQVTVSS"
  polyreactivity (PSR sort gate): "high polyreactivity"
